system: RAF1; settings: concentration: 1 μM, replicates: in singlicate; n = 1
Kindly apply the following: true if %Inh is less than 8%, false in every other case.

Please let me know if Cn1ccc2ncnc(Oc3ccc(Nc4nc5ccccc5[nH]4)cc3)c21 shows %Inh below 8%. true

Please let me know if CS(=O)(=O)c1ccc(-c2c(-c3ncn[nH]3)sc(N3CCOCC3)c2C#N)cc1 shows %Inh below 8%. true

Please let me know if COC(=O)c1c(-c2ccccc2)c2cc(OC)ccc2c(=O)n1Cc1ccccc1 shows %Inh below 8%. false

Please let me know if Cc1ccccc1-n1cnc2c(N)ncnc21 shows %Inh below 8%. true

Please let me know if Cl.Oc1ccc(-c2nc(-c3ccccc3)[nH]c2-c2ccncc2)cc1 shows %Inh below 8%. false

Please let me know if O=C(Nc1ccc2c(c1)OCO2)NC1CCN(c2ccnc(Nc3ccc(F)cc3)n2)C1 (stereo not shown) shows %Inh below 8%. false

====

Record form. Attribute: %Inh. Fill in for each entry.
test system: WEE1; conditions: concentration: 1 μM, replicates: in singlicate; n = 1

Some compounds with known %Inh results, for comparison:
COMPOUND: COc1cc(Nc2nccc(N3CCC(NC(=O)Nc4cc(C)ccc4C)C3)n2)cc(OC)c1OC (stereo not shown) [GSK1379762]
%Inh: 32%
//
COMPOUND: CC(=O)Nc1nc2cnc(Nc3cc(NC(=O)c4cccc(CCC#N)c4)ccc3C)nc2s1
%Inh: 0%
//
COMPOUND: COc1ccccc1CNC(=O)c1cc(C(=O)c2ccccc2C)c[nH]1 [GSK364507]
%Inh: 9%
//
COMPOUND: Cc1c(Cn2ccn3c(=O)cc(N4CCOCC4)nc23)cccc1C(F)(F)F [GSK2289044]
%Inh: 0%
//
COMPOUND: NC(=O)c1nnc2ccccc2c1N
%Inh: 9%
//
COMPOUND: Cn1ccc2ncnc(Oc3ccc(NC(=O)Nc4ccccc4)cc3)c21
%Inh: 0%

Hi, could you look up %Inh for each item in my list?
1. CS(=O)(=O)c1ccc(-c2nc3n(c2-c2ccncc2)CCC3)cc1 [SKF-105942]
2. COc1ccc(C2=C(Nc3cccc(C(=O)O)c3)C(=O)NC2=O)cc1 [SB-390765]
3. CCn1c(-c2ccccn2)nc2cnccc21 [SB-736398]
4. O=C(Nc1n[nH]c2nc(-c3nccs3)c(Br)cc12)C1CC1 [SB-742251]

1. 0%
2. 0%
3. 0%
4. 16%

====

test system: PIKFYVE; details: concentration: 1 μM, replicates: in singlicate; n = 1
ASSAY ENDPOINT: %Inh (%)
Answers are plain numbers, in %.

Some molecules with known %Inh results, for comparison:
MOLECULE: COc1ccccc1CNC(=O)c1cc(C(=O)c2ccccc2C)c[nH]1 [GSK364507]
UNITS OF MEASURE: %
%Inh: 0
--
MOLECULE: CS(=O)(=O)c1ccc(-c2nc3n(c2-c2ccncc2)CCC3)cc1 [SKF-105942]
UNITS OF MEASURE: %
%Inh: 0
--
MOLECULE: CSc1nn2c(=O)cc(N3CCOCC3)nc2n1Cc1cccc(C(F)(F)F)c1C [GSK2363608]
UNITS OF MEASURE: %
%Inh: 0

Hi, could you look up %Inh for each item in my list?
1. NC(=O)c1nnc2ccccc2c1N
2. Cc1cccc(-c2cc(Nc3ccncc3)c3ccccc3n2)n1 [GSK223675]

[4, 23]

====

system: PIK3CD;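 also: kd values determined as follow-up on hits from a single-replicate KINOMEscan panel screen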
ASSAY ENDPOINT: Kd (nM)
Answers are plain numbers, in nM.

COMPOUND STRUCTURE: Cc1c(Cn2ccn3c(=O)cc(N4CCOCC4)nc23)cccc1C(F)(F)F
Kd / nM: 170

// Kd value for O=c1cc(N2CCOCC2)nc2n(Cc3cccc(Cl)c3Cl)ccn12 : 79

====

Record form. Attribute: %Inh. Fill in for each entry.
system: TRKB; conditions: concentration: 1 μM, replicates: in singlicate; n = 1
Answers are plain numbers, in %.

COMPOUND: Cn1ccc2ncnc(Oc3cccc(C(=O)Nc4ccccc4)c3)c21
ASSAY ENDPOINT: %Inh
QUANTITATIVE READOUT: 0
--
COMPOUND: CC1=C(C(=O)Nc2cc3cn[nH]c3cc2F)C(c2ccc(C(F)(F)F)cc2)CC(=O)N1 (stereo not shown) [GSK429286]
ASSAY ENDPOINT: %Inh
QUANTITATIVE READOUT: 0

Hi, could you look up %Inh for each item in my list?
1. Cc1c(Cn2ccn3c(=O)cc(N4CCOCC4)nc23)cccc1C(F)(F)F [GSK2289044]
2. Cc1cc(NCC(c2ccccc2)c2ccccc2)nc(NCc2ccc(C(F)(F)F)cc2)n1 [GW497681]
3. CC(C)(C)c1ccc(C(=O)Nc2cn3cc(Cl)ccc3n2)cc1
4. Cc1nnc(-c2ccc3occ(-c4ccc(S(C)=O)cc4)c3c2)[nH]1 (stereo not shown)
5. O=C(Nc1ccccc1)Nc1cccc(Oc2ccc3nccn3n2)c1

1: 0; 2: 14; 3: 0; 4: 0; 5: 0

Hi, could you look up %Inh for each item in my list?
1. Cc1cc(N2Cc3ccccc3C2)nc(Nc2ccc(S(=O)(=O)N3CCOCC3)cc2)n1.Cl [GSK1669917]
2. COc1cccc(NC(=O)NC2CCN(c3ccnc(Nc4ccc(F)cc4)n3)C2)c1 (stereo not shown) [GSK1379721]
3. O=C(Nc1n[nH]c2cc(-c3cccc(F)c3F)ccc12)C1CC1 [SB-733894]
4. CC(C)(C)c1ccc(C(=O)Nc2cn3cc(-c4cccnc4)ccc3n2)cc1
5. O=C(O)COc1ncnc2cc(-c3ccc4[nH]ncc4c3)sc12
6. Cc1ccc(NC(=O)Nc2cccc(Cl)c2)cc1-c1ccc(C(=O)Nc2ccncc2)cc1 [GSK1398468]

[0, 59, 11, 11, 42, 0]

Hi, could you look up %Inh for each item in my list?
1. O=C(Nc1ccc2c(c1)OCO2)NC1CCN(c2ccnc(Nc3ccc(F)cc3)n2)C1 (stereo not shown) [GSK1379724]
2. Cc1ccccc1-n1cnc2c(N)ncnc21 [SKF-97510]
3. Fc1cc(Cl)ccc1Nc1ccnc2cc(I)ccc12 [GW551191]
4. Fc1cccc(COc2nnc(-c3ccc4c(c3)CCO4)o2)c1
5. Cc1cc(-c2ccc3c(c2)CC[C@@H](N[C@@H](C)c2ccccc2)C3)cnc1N.Cl [GW412617]

[19, 0, 37, 0, 10]

Hi, could you look up %Inh for each item in my list?
1. O=S(=O)(c1ccc(-c2ccnc3[nH]ccc23)cc1)N1CCCC1 [GSK846226]
2. Clc1cc(Cl)cc(Nc2ccnc(Nc3cc(Cl)cc(Cl)c3)n2)c1 [GSK175726]
3. Cc1ccc(NC(=O)Nc2cc(C(C)(C)C)nn2-c2ccccc2)cc1 [GSK1014915]
4. O=C1NC(=O)C(N2CCc3ccccc32)=C1c1ccccc1Cl [SB-373598]

0
0
28
0

Hi, could you look up %Inh for each item in my list?
1. Cc1cccc(-c2nc(-c3ccc(S(C)(=O)=O)cc3)sc2-c2ccnc(NCCc3ccccc3)c2)c1
2. C[C@@H]1CCCCN1c1cc(-c2ccc3c(N)n[nH]c3c2)nc(N)n1 [GSK2258759]
3. COC(=O)c1c(-c2ccccc2)c2cc(C(=O)O)ccc2c(=O)n1Cc1ccccc1
4. CN(C)CCN(C)C(=O)c1cc(-c2ccncc2)c(-c2ccc(Cl)c(O)c2)o1.Cl.Cl [SB-710397]
5. Fc1cc(Cl)ccc1Nc1ccnc2cc(-c3ccc(CN4CCCCC4)o3)ccc12 [GW560116]

[0, 0, 0, 43, 19]

Hi, could you look up %Inh for each item in my list?
1. CC(=O)Nc1nc2cnc(Nc3cc(NC(=O)c4cccc(CCC#N)c4)ccc3C)nc2s1
2. Nc1ncnc2[nH]c(-c3ccccc3)nc12 [AH5015]
3. Cl.NC(=O)c1cccc(Nc2nccc(Nc3ccc(Oc4cccc(Cl)c4)c(Cl)c3)n2)c1 [GW659008]
4. Cl.Oc1ccc(-c2nc(-c3ccccc3)[nH]c2-c2ccncc2)cc1 [SB-428218]

1. 6
2. 45
3. 0
4. 63

====

tested on: ABL2; conditions: concentration: 1 μM, replicates: in singlicate; n = 1
Record form. Attribute: %Inh. Fill in for each entry.
Numbers only, in %.

Some compounds with known %Inh results, for comparison:
COMPOUND STRUCTURE: Cl.O=C(Nc1cccc(-c2nn3ncccc3c2-c2ccnc(Nc3cccnc3)n2)c1)c1c(F)cccc1F
%Inh [%]: 21

COMPOUND STRUCTURE: Cc1cccc(-c2nc(C)cc(Nc3ccncc3)n2)n1
%Inh [%]: 6

COMPOUND STRUCTURE: Cl.NC(=O)c1cccc(Nc2nccc(Nc3ccc(Oc4cccc(Cl)c4)c(Cl)c3)n2)c1
%Inh [%]: 20

COMPOUND STRUCTURE: C[C@@H]1CCCCN1c1cc(-c2ccc3c(N)n[nH]c3c2)nc(N)n1
%Inh [%]: 0

COMPOUND STRUCTURE: CC(C)(C)c1ccc(C(=O)Nc2cn3cc(Cl)ccc3n2)cc1
%Inh [%]: 0

Hi, could you look up %Inh for each item in my list?
1. Cc1cc(NCC(c2ccccc2)c2ccccc2)nc(NCc2ccc(C(F)(F)F)cc2)n1
2. Cc1ccc(NC(=O)Nc2cccc(Cl)c2)cc1-c1ccc(C(=O)Nc2ccncc2)cc1
3. Cc1cccc(-c2nc(-c3ccc(S(C)(=O)=O)cc3)sc2-c2ccnc(NCCc3ccccc3)c2)c1

1. 0
2. 17
3. 0
